Provide the recorded apparent KD of MS2 coat protein for the entries that follow.
test system: MS2 coat protein; assay: apparent KD of MS2 coat protein; designed switch direction (-1 OFF switch, 1 ON switch): -1; higher = weaker reporter binding; details: input ligand: microRNA oligo, concentration not stated
The reply should read as a number followed by its unit.

Past entries and their recorded results:
Suppose we examine the sequence ACAGUUUUGCAAGGAUAUCGUUUUAGUUUAUUACGAGAAGGUGCUUUAGUUAUUUCUUUGGGUUGACAUGAGGAUCACCCAUGU [JR_ExcNG1_Sub057] (Eterna round: R96, puzzle: Exclusion NG 1) ; what apparent KD of MS2 coat protein value has been reported? 144 nM

Suppose we examine the sequence AACCUGAGGCUUUGCUUUAGGUGUACAUGAGGAUCACCCAUGUAGGAUAUGGUAGGCUUUGCUUACCAGAAGGACAUUUAGGUU [JL ENG3 1.15] (Eterna round: R96, puzzle: Exclusion NG 3) ; what apparent KD of MS2 coat protein value has been reported? 33.6 nM

Suppose we examine the sequence AGCUGUGGCCGAGGAUAUCUGUUCCAAAUAACCGACGUAUAGUCGGACAUGAGGAUCACCCAUGUAGAGAAGGCGGUCUCAGCA [Eli eng2 - 101] (Eterna round: R96, puzzle: Exclusion NG 2) ; what apparent KD of MS2 coat protein value has been reported? 38 nM

# return apparent KD of MS2 coat protein for each item in the list
1. ACAUGAGGAUCACCCAUGUCCGGCUGGUCUGUUCCGGCUGUCGAGGAUAUAGUCCGGUGUUCGCGCUAGAAGGUGAGGGCUGGA [Aenatbe mod 45] (Eterna round: R96, puzzle: Exclusion NG 3)
2. UUUUACUUAGGAUAUACAUUUUUUUAUUUAUUUAUAAUAUUACAUGAGGAUCACCCAUGUAGAAGGGAGAUUUU [My Design] (Eterna round: R96, puzzle: Exclusion 2)

["48.6 nM", "64.3 nM"]

###

tested on: MS2 coat protein; assay: apparent KD of MS2 coat protein; designed switch direction (-1 OFF switch, 1 ON switch): 1; higher = weaker reporter binding; conditions: Eterna round: R95; input ligand: microRNA oligo, concentration not stated
Observation Type: apparent KD of MS2 coat protein
The reply should read as a number followed by its unit.

Kindly state the measured apparent KD of MS2 coat protein obtained for AUUAAACAUGAGGAUCACCCAUGUCAACAAAGUCGAGGAUAUGGGCAUAUUAUCUUAUUUCCAGAAGGCGAAUAAU [salish99_ss1_r3_088] (puzzle: Same State 1) with MS2 coat protein. 131 nM

Kindly state the measured apparent KD of MS2 coat protein obtained for GAGGGACAUGAGGAUCACCCAUGUGGAAAAUUUAAAGGAUAUUAGUGUGGGAAAGUAGGGUAAGAAGGUUGAUUGG [JR_SS1_Sub085] (puzzle: Same State 1) with MS2 coat protein. 54.2 nM

Kindly state the measured apparent KD of MS2 coat protein obtained for UAGUACAAGCUUUUUGCUUGUCUUAUUUAACAUGAGGAUCACCCAUGUAAGUUGAAAGUUAGAGAGUGCAGGUUGAA [JR_SHM208A_Sub051] (puzzle: Sensor for hsa-mir-208a) with MS2 coat protein. 21.9 nM

# return apparent KD of MS2 coat protein for each item in the list
1. UAGUACAUGCUUUUUGUCCGUCUUAGAUAACAUGAGGAUCACCCAUGUAAGGUGAAAGUUAUAUAGUUUAGGAAGAU [JR_SHM208A_Sub056] (puzzle: Sensor for hsa-mir-208a)
2. CUCAAACAUGAGGAUCACCCAUGUGUUGUCAUGGGAGGAUAUCCCAGUUCGGUGACGUCGGGAGAAGGCCUAUGUC [× ×•×ª×• ×ž×“×™× ×” × ×—×ª-15] (puzzle: Same State 1)
3. GAAAGAGGAAGCGAGGAUAUCGUGAAGAGUACAUGAGGAUCACCCAUGUUGUAGGUAAAGGUAGGCGAGAAGGCGCAGGAGAAGA [JR_SS2_Sub0102] (puzzle: Same State 2)

["424 nM", "77.7 nM", "23.7 nM"]
